The reported numbers originate from patent US10543212B2.

target: Human full-length CaMKIIδ (Homo sapiens); construct: Human full-length CaMKIIδ (Cat #02-111) was obtained from Carna Biosciences; GST; purchased Carna Biosciences 02-111; test: Human CaMKII enzyme inhibition assay (radiometric kinase assay); type: biochemical; conditions: 3 μM compound; 500 nM ATP; 0.5 nM CaMKIIδ; read-out: CaMKIIδ inhibitory activity (%) at 3 μM
Counter-ions that a name gives are not always drawn.
In this section, each of the molecules is paired with its reported inhibition at 3 µM.
Give the quantity in %, number only.

# annotated cases, reported inhibition at 3 µM shown
[
  {
    "MOLECULE": "C[C@@H](Cn1cncn1)Oc1cc(-c2cnc(Nc3cn[nH]c3)nc2)ccc1C#N",
    "inhibition at 3 µM, %": 98
  },
  {
    "MOLECULE": "C[C@@H](Cn1cncn1)Oc1cc(-c2cnc(Nc3cnn(C(C)(C)C)c3)nc2)ccc1C#N",
    "inhibition at 3 µM, %": 98
  },
  {
    "MOLECULE": "COc1cc(N2CCC(N3CCOCC3)CC2)ccc1Nc1ncc(-c2ccc(C#N)c(O[C@@H](C)Cn3cnnn3)c2)cn1 [Example 10, hydrochloride]",
    "inhibition at 3 µM, %": 98
  },
  {
    "MOLECULE": "Cc1nn(C)cc1Nc1ncc(-c2ccc(C#N)c(O[C@@H](C)Cn3cnnn3)c2)cn1",
    "inhibition at 3 µM, %": 98
  }
]

So what does the record say about inhibition at 3 µM for "C[C@@H](Cn1cncn1)Oc1cc(-c2cnc(Nc3cnn(CC(F)(F)F)c3)nc2)ccc1C#N" ? 97

Consider next the molecule "COc1nc(N2CCC(N3CCOCC3)CC2)ccc1Nc1ncc(-c2ccc(Cl)c(O[C@@H](C)Cn3cnnn3)c2)cn1" in the same way. 99

What do you get for "COc1cc(C2CCN(CCO)CC2)ccc1Nc1ncc(-c2ccc(C#N)c(O[C@@H](C)Cn3cnnn3)c2)cn1" ? 99
